Tested on: HEK293 human embryonic kidney cell line
experiment summary: HEK293 cytotoxicity
Assay type: cell-based
experimental parameters: at 40 μM, 72 h
Measured inhibition of HEK293 cells, listed per entry.
recorded metric: inhibition of HEK293 cells

INSERT INTO results (molecule, measured_on, result) VALUES
  ('CCCOC(=O)C1=C(C)NC2=C(C(=O)CC(c3ccc(OC)c(OC)c3)C2)C1c1ccccc1F (stereo not shown)', 'HEK293 human embryonic kidney cell line', '< 50%'),
  ('COc1ccc(C2CC(=O)C3=C(C2)NC(C)=C(C(=O)OC(C)C)C3c2ccccc2C)cc1OC (stereo not shown)', 'HEK293 human embryonic kidney cell line', '< 50%'),
  ('CC(C)(C)c1ccc(O)c(CNC2CCCCC2)c1', 'HEK293 human embryonic kidney cell line', '< 50%');

---

System: Dd2-B2 late rings
experiment summary: Hb endocytosis by Western blot
Type: cell-based, Plasmodium falciparum
experimental parameters: 5′ the IC50 for 5 h, normalized to DMSO control
recorded metric: reduction of Hb levels within parasites

INSERT INTO results (molecule, measured_on, result) VALUES
  ('CCCCN(CCCC)CC(O)c1cc(Cl)cc2c1-c1ccc(Cl)cc1/C2=C/c1ccc(Cl)cc1 (stereo not shown) [LMF, Lumefantrine]', 'Dd2-B2 late rings', 'no significant changes'),
  ('CCOC(=O)C1=C(C)NC2=C(C(=O)CC(c3ccc(OC)c(OC)c3)C2)C1c1ccccc1Cl (stereo not shown) [GNF-Pf-5660]', 'Dd2-B2 late rings', '32%'),
  ('OC(c1cc(C(F)(F)F)nc2c(C(F)(F)F)cccc12)C1CCCCN1 (stereo not shown) [MQ, mefloquine]', 'Dd2-B2 late rings', 'no significant changes'),
  ('CC1(C)N=C(N)N=C(N)N1OCCCOc1cc(Cl)c(Cl)cc1Cl [WR99210]', 'Dd2-B2 late rings', 'no significant changes');

src = paper PMC5708124
